# assay method text: DUX4 transcriptional activity inhibition in cells – 293T cells, Gaussia and Italica luciferase, primary screen (AID 1224904)
# experimental conditions: 293T-iDUX4 ZSCAN4-Gaussia luciferase reporter, 24 h; measured here: selective DUX4 reporter inhibition; stronger effect = lower value; concentration not given here
Hit rate of the full screen: of about 37,000 compounds, about 290 (0.78%) were called active. About 10% were inconclusive and are not listed. The list comes from a sample in which actives are over-represented; it also holds close analogues and randomly drawn compounds.
property measured: Gaussia minus Italica difference (%)
The reply should contain only the number, in %.

Use these answered entries as a reference point.
# item smiles, unit name, Gaussia minus Italica difference
records = [
    ("O=C(Cc1ccccc1)N1C[C@H]2[C@@H](c3ccccc31)[C@H](CO)N2C(=O)c1ccc(F)cc1", "%", -2.21),
    ("O=C(C[C@@H]1C[C@H]2c3cc(NC(=O)Nc4ccccc4F)ccc3O[C@H]2[C@@H](CO)O1)NCc1ccncc1", "%", -2.32),
    ("C[C@H](CO)N1C[C@H](C)[C@@H](CN(C)Cc2ccncc2)OCCCC[C@H](C)Oc2ccc(NS(=O)(=O)c3ccc(Cl)cc3)cc2C1=O", "%", -7.04),
]

Req: Param item = CCCNC(=O)N1C[C@@H]2[C@H](c3ccccc31)[C@@H](CO)N2C(=O)NC(C)C ; retrieve measured Gaussia minus Italica difference.
Resp: -3.78

Req: Param item = CCC(=O)Nc1ccc2c(c1)C(=O)N(C)C[C@H](OC)[C@@H](C)CN(Cc1nccs1)[C@H](C)CO2 ; retrieve measured Gaussia minus Italica difference.
Resp: -10

Req: Param item = O=C(c1ccccc1F)N1C[C@@H]2[C@H](c3ccccc31)[C@H](CO)N2C(=O)C1CCCC1 ; retrieve measured Gaussia minus Italica difference.
Resp: -1.83

###

Each entry below carries its reported Gaussia minus Italica difference.
# assay method text: DUX4 transcriptional activity inhibition in cells – 293T cells, Gaussia and Italica luciferase, primary screen (AID 1224904)
# experimental conditions: 293T-iDUX4 ZSCAN4-Gaussia luciferase reporter, 24 h; measured here: selective DUX4 reporter inhibition; stronger effect = lower value; concentration not given here
In all, about 37,000 compounds went through this assay and about 290 (0.78%) were called active. Roughly 10% stayed inconclusive and do not appear here. For the sample, actives were picked, then their nearest neighbours and some compounds at random.
The reply should contain only the number, in %.

# compound, Gaussia minus Italica difference / %
data = [
    ("CCCNC(=O)Nc1ccc2c(c1)C(=O)N(C)C[C@H](OC)[C@H](C)CN[C@@H](C)CO2", 1.03),
]

Req: Param item = CN(C)C(=O)c1cccc(-c2ccc3c(c2)[C@H]2[C@H](CCN2C(=O)c2cccnc2)[C@H](CO)N3)c1 ; retrieve measured Gaussia minus Italica difference.
Resp: -0.793

Req: Param item = CC(C)NC(=O)N1[C@H](CO)[C@H](c2ccccc2)C12CN(C(=O)Cc1cccnc1)C2 ; retrieve measured Gaussia minus Italica difference.
Resp: -4.76

Req: Param item = C[C@@H]1CN([C@H](C)CO)S(=O)(=O)c2ccc(C#CC3CCCC3)cc2O[C@@H]1CN(C)Cc1ccccc1C(=O)O ; retrieve measured Gaussia minus Italica difference.
Resp: 1.03

###

# assay method text: DUX4 transcriptional activity inhibition in cells – 293T cells, Gaussia and Italica luciferase, primary screen (AID 1224904);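 on activity change, negative = inhibition: 0% = median of neutral control wells and -100% = median of positive control wells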
# experimental conditions: 293T-iDUX4 ZSCAN4-Gaussia luciferase reporter, 24 h; measured here: Italica tet-on control reporter; stronger effect = lower value; concentration not given here
Screen size: about 37,000 compounds; about 290 (0.78%) were called active. About 10% were inconclusive and are not listed. The list comes from a sample in which actives are over-represented; it also holds close analogues and randomly drawn compounds.
property measured: activity change, negative = inhibition (%)
The reply should contain only the number, in %.

# molecule, activity change, negative = inhibition, %
measured = [
    ("COc1ccc2c3c([nH]c2c1)[C@@H](CO)N(C(=O)NC(C)C)CC31CN(C(=O)C2CCCC2)C1", 0.3),
    ("CCCNC(=O)N1C[C@@H]2[C@H](c3ccccc31)[C@@H](CO)N2C(=O)NC(C)C", 0.166),
]

Req: Param item = O=C(Nc1ccccc1)N1C[C@H]2[C@@H](c3ccccc31)[C@H](CO)N2Cc1ccc(F)cc1 ; retrieve measured activity change, negative = inhibition.
Resp: -0.0374

Req: Param item = O=C([C@H]1[C@H](CO)[C@H]2Cn3c(cccc3=O)[C@@H]1N2Cc1cocn1)N1CCCCC1 ; retrieve measured activity change, negative = inhibition.
Resp: 1.28

The values you see were collected from PubChem BioAssay AID1224904.
